In this section we review reported pIC50 values for a set of compounds.
test system: p-IKKα levels in L363 (NIK translocated multiple myeloma) cells; assay: Effect of compounds on p-IKKα levels in L363 cells (AlphaLISA SureFire Ultra); format: cell-based, human; conditions: Homo sapiens, L-363, 6 h, 250 ng/ml BAFF stimulated, 10 μM MG132, 6 h, average of values obtained, read-out: Assay 2 IC50
pIC50: −log10 of the molar value.

compound | system.name | pIC50
Cc1cnc2c(-c3nc(-c4cccc([C@]5(O)CCn6ccnc65)c4)cs3)c[nH]c2n1 | p-IKKα levels in L363 (NIK translocated multiple myeloma) cells | 6.30 to 7.00

[2H]c1cnc2[nH]cc(-c3nc(-c4cccc([C@]5(O)CCn6ccnc65)c4)cs3)c2n1 has a reported pIC50 of ≥ 7.00

O[C@]1(c2cccc(-c3csc(-c4c[nH]c5nccnc45)n3)c2)CCn2ccnc21 has a reported pIC50 of < 6.30

O[C@@]1(c2cccc(-c3csc(-c4c[nH]c5ncc(F)c(F)c45)n3)c2)CCn2ccnc21 has a reported pIC50 of < 6.30

Cc1cnc2[nH]cc(-c3nc(-c4cccc([C@@]5(O)CCn6ccnc65)c4)cs3)c2n1 has a reported pIC50 of < 6.30

C[C@@](O)(c1cccc(-c2csc(-c3c[nH]c4ncccc34)n2)c1)c1ccccn1 (single isomer, unassigned) has a reported pIC50 of < 6.30

O[C@]1(c2cccc(-c3csc(-c4c[nH]c5ncccc45)n3)c2)CCc2cccnc21 (single isomer, unassigned) has a reported pIC50 of < 6.30

----------
In this section we review reported IC50 values for a set of molecules.
target: recombinant human NF-kappaB-inducing kinase (NIK/MAP3K14) (Homo sapiens); experiment: Inhibition of auto-phosphorylation of recombinant human NIK/MAP3K14 activity (AlphaScreen); conditions: GST-tagged NIK/MAP3K14 1 nM, 5 μM ATP, 2 h at 25° C.; average of values obtained

molecule | IC50
C[C@@](O)(c1cccc(-c2csc(-c3c[nH]c4nccnc34)n2)c1)c1ncc[nH]1 (single isomer, unassigned) | > 500 nM

O[C@@]1(c2cccc(-c3csc(-c4n[nH]c5nccnc45)n3)c2)CCn2ccnc21 has a reported IC50 of 100 to 500 nM

[2H]c1[nH]c2nccnc2c1-c1nc(-c2cccc([C@]3(O)CCn4ccnc43)c2)cs1 has a reported IC50 of ≤ 100 nM

Cc1ccc2[nH]cc(-c3nc(-c4cccc([C@]5(O)CCN(C)C5=O)c4)cs3)c2n1 has a reported IC50 of 100 to 500 nM

----------
In this section we review reported pIC50 values for a set of compounds.
target: recombinant human NF-kappaB-inducing kinase (NIK/MAP3K14) (Homo sapiens); experiment: Inhibition of auto-phosphorylation of recombinant human NIK/MAP3K14 activity (AlphaScreen); conditions: GST-tagged NIK/MAP3K14 1 nM, 5 μM ATP, 2 h at 25° C.; average of values obtained
pIC50: −log10 of the molar value.

Some compounds with recorded pIC50:
compound | pIC50
O[C@]1(c2cccc(-c3csc(-c4c[nH]c5ncccc45)n3)c2)C=Cc2cccnc21 (single isomer, unassigned) | < 6.30
CN1CC[C@@](O)(c2cccc(-c3cnc(-c4c[nH]c5ncccc45)n3C)c2)C1=O | < 6.30
Cc1noc2c1CC[C@@]2(O)c1cccc(-c2csc(-c3c[nH]c4ncccc34)n2)c1 (single isomer, unassigned) | ≥ 7.00

Cc1[nH]c2ncccc2c1-c1nc(-c2cccc([C@]3(O)CCN(C)C3=O)c2)cs1 has a reported pIC50 of 6.30 to 7.00

----------
target: recombinant human NF-kappaB-inducing kinase (NIK/MAP3K14) (Homo sapiens, UniProt Q99558); assay: Inhibition of auto-phosphorylation of recombinant human NIK/MAP3K14 activity (AlphaScreen); conditions: GST-tagged NIK/MAP3K14 1 nM, 5 μM ATP, 2 h at 25° C.; average of values obtained
Sequence (Q99558 whole entry): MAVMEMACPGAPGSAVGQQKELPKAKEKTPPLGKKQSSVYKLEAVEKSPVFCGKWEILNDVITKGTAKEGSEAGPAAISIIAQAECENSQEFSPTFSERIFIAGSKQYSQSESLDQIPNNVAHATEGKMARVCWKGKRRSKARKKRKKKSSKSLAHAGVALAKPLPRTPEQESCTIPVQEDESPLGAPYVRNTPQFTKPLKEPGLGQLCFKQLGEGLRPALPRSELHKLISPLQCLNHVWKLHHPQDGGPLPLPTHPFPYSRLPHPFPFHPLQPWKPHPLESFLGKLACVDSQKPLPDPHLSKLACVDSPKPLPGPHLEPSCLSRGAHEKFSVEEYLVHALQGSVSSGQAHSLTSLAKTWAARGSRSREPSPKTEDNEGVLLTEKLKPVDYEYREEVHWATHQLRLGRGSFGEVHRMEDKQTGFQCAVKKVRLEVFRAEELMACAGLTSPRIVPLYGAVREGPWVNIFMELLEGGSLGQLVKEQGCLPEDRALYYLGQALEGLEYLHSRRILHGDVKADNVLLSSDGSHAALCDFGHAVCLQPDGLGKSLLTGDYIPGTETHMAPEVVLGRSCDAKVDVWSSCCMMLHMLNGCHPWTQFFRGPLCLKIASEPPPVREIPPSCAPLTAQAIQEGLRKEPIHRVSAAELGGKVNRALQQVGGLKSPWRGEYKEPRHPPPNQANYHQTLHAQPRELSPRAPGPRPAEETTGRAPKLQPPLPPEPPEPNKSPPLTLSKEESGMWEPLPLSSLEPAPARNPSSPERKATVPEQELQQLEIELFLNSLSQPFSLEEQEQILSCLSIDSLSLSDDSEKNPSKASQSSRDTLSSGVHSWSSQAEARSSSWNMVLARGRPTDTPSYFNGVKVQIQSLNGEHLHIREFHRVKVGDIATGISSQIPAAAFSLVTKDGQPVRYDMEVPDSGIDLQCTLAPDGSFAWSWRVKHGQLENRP
In this section we review reported IC50 values for a set of compounds.

Some compounds with recorded IC50:
compound | property | observed.value
Cc1c(-c2c[nH]c3ncccc23)n[nH]c1-c1cccc([C@]2(O)CCN(C)C2=O)c1 [Example 119] | IC50 | > 500 nM
CN1CC[C@@](O)(c2cccc(-n3ccc(-c4c[nH]c5ncccc45)n3)c2)C1=O (single isomer, unassigned) [Example 122] | IC50 | ≤ 100 nM
O[C@@]1(c2cccc(-c3nc(-c4c[nH]c5ncccc45)cs3)c2)CCc2scnc21 [Example 59] | IC50 | ≤ 100 nM

Now consider the entry below.
O[C@@]1(c2cccc(-c3csc(-c4c[nH]c5ncc(F)c(F)c45)n3)c2)CCn2ccnc21 [Example 96] has a reported IC50 of ≤ 100 nM

----------
In this section we review reported pIC50 values for a set of molecules.
target: recombinant human NF-kappaB-inducing kinase (NIK/MAP3K14) (Homo sapiens); experiment: Inhibition of auto-phosphorylation of recombinant human NIK/MAP3K14 activity (AlphaScreen); type: biochemical; settings: GST-tagged NIK/MAP3K14 1 nM, 5 μM ATP, 2 h at 25° C.; average of values obtained
pIC50: −log10 of the molar value.

molecule | property | observed.value
[2H]c1[nH]c2nccnc2c1-c1nc(-c2cccc([C@@]3(O)CCn4ccnc43)c2)cs1 [Example 18] | pIC50 | < 6.30
O[C@]1(c2cccc(-c3csc(-c4c[nH]c5ncncc45)n3)c2)CCc2cccnc21 (single isomer, unassigned) [Example 6] | pIC50 | 6.30 to 7.00
CN1CC[C@@](O)(c2cccc(-c3csc(-c4c[nH]c5nccnc45)n3)c2)C1=O (single isomer, unassigned) [Example 40] | pIC50 | ≥ 7.00

Now consider the entry below.
Cc1cnc2c(-c3nc(-c4cccc([C@]5(O)CCn6ccnc65)c4)cs3)c[nH]c2n1 [Example 83] has a reported pIC50 of ≥ 7.00

----------
In this section we review reported IC50 values for a set of compounds.
system: p-IKKα levels in L363 (NIK translocated multiple myeloma) cells; assay: Effect of compounds on p-IKKα levels in L363 cells (AlphaLISA SureFire Ultra); assay type: cell-based, human; conditions: Homo sapiens, L-363, 6 h, 250 ng/ml BAFF stimulated, 10 μM MG132, 6 h, average of values obtained, read-out: Assay 2 IC50

compound | system.name | observed.value
Cc1cnc2[nH]cc(-c3nc(-c4cccc([C@]5(O)CCn6ccnc65)c4)cs3)c2n1 | p-IKKα levels in L363 (NIK translocated multiple myeloma) cells | ≤ 100 nM
O[C@@]1(c2cccc(-c3csc(-c4c[nH]c5ncc(C(F)(F)F)cc45)n3)c2)CCn2ccnc21 | p-IKKα levels in L363 (NIK translocated multiple myeloma) cells | 100 to 500 nM
Cc1noc2c1CC[C@@]2(O)c1cccc(-c2csc(-c3c[nH]c4ncccc34)n2)c1 (single isomer, unassigned) | p-IKKα levels in L363 (NIK translocated multiple myeloma) cells | > 500 nM
O[C@]1(c2cccc(-c3csc(-c4c[nH]c5ncccc45)n3)c2)C=Cc2cccnc21 (single isomer, unassigned) | p-IKKα levels in L363 (NIK translocated multiple myeloma) cells | > 500 nM
O[C@H]1C[C@](O)(c2cccc(-c3csc(-c4c[nH]c5ncccc45)n3)c2)c2ncccc21 (single isomer, unassigned) | p-IKKα levels in L363 (NIK translocated multiple myeloma) cells | > 500 nM

Now consider the entry below.
C[C@]1(O)C[C@](O)(c2cccc(-c3csc(-c4c[nH]c5ncccc45)n3)c2)c2ncccc21 (single isomer, unassigned) has a reported IC50 of > 500 nM

----------
target: recombinant human NF-kappaB-inducing kinase (NIK/MAP3K14) (Homo sapiens, UniProt Q99558); assay: Inhibition of auto-phosphorylation of recombinant human NIK/MAP3K14 activity (AlphaScreen); conditions: GST-tagged NIK/MAP3K14 1 nM, 5 μM ATP, 2 h at 25° C.; average of values obtained
pIC50: −log10 of the molar value.
In this section we review reported pIC50 values for a set of compounds.

compound | system.name | pIC50
Cc1ccnc2[nH]cc(-c3nc(-c4cccc([C@]5(O)CCn6ccnc65)c4)cs3)c12 [Example 87] | recombinant human NF-kappaB-inducing kinase (NIK/MAP3K14) (Homo sapiens, UniProt Q99558) | ≥ 7.00
CN1CC[C@@](O)(c2cccc(-c3csc(-c4c[nH]c5ncc(C(=O)O)cc45)n3)c2)C1=O [Example 51] | recombinant human NF-kappaB-inducing kinase (NIK/MAP3K14) (Homo sapiens, UniProt Q99558) | ≥ 7.00
Cc1cnc2[nH]cc(-c3nc(-c4cccc([C@@]5(O)CCn6ccnc65)c4)cs3)c2n1 [Example 82] | recombinant human NF-kappaB-inducing kinase (NIK/MAP3K14) (Homo sapiens, UniProt Q99558) | 6.30 to 7.00
CN1CC[C@@](O)(c2cccc(-n3cnc(-c4c[nH]c5ncccc45)n3)c2)C1=O (single isomer, unassigned) [Example 121] | recombinant human NF-kappaB-inducing kinase (NIK/MAP3K14) (Homo sapiens, UniProt Q99558) | ≥ 7.00
Cc1ccc(-c2csc(-c3c[nH]c4nccnc34)n2)cc1[C@]1(O)CCN(C)C1=O [Example 69] | recombinant human NF-kappaB-inducing kinase (NIK/MAP3K14) (Homo sapiens, UniProt Q99558) | 6.30 to 7.00
CN1C[C@@](O)(c2cccc(-c3csc(-c4c[nH]c5nccnc45)n3)c2)C1=O [Example 45] | recombinant human NF-kappaB-inducing kinase (NIK/MAP3K14) (Homo sapiens, UniProt Q99558) | < 6.30

Now consider the entry below.
O[C@@]1(c2cccc(-c3csc(-c4c[nH]c5ncccc45)n3)c2)COc2cccnc21 [Example 16] has a reported pIC50 of ≥ 7.00
